- System: PyIESI-1 RRM domain (Plasmodium yoelii PY17X_0911200 aa 795-956, GST fusion)
- assay_protocol: RBNS R-value (6-mer enrichment in protein-bound RNA vs input library) (ratio); higher = stronger binding preference; the methods of the paper give 50 / 100 / 500 nM protein instead
- assay_setup: protein concentration: 500 nM
Whole data set: some 4,100 sequences, median “RBNS R-value (6-mer enrichment in protein-bound RNA vs input library)” near 0.96, cut for the highest 2% near 2.4. Only a selection was taken, and the highest values are over-represented in it overall.
measure_name: RBNS R-value

* UGAUGA | 7.87
* AGGAUG | 1.18
* CAGAUA | 0.988
* GAUUUC | 3.2
* UAGGAG | 0.936
* AUGAUC | 2.71
* UCGAUA | 1.23
* CAUUUG | 1.35
* UAGAUC | 0.834
* UUGACC | 1.42
* GUAGUG | 0.965
* CAUUUC | 0.94
* UGAUGU | 6.29
* UAUUCA | 0.565
* UCGAUC | 1.07
* GCUGAU | 3.7
* AGAUGA | 2.61
* GAUAUU | 1.65
* CCGAUA | 1.36
* AAUUUC | 1.11
* CGCUUA | 0.629
* CGGGUA | 0.929
* GUGUUC | 0.855
* GGGCUU | 1.02
* AAUUUU | 1.02
* UAUGUA | 0.616
* UCCAGU | 0.85
* CAUUCC | 0.975
* AAUUCG | 1.08
* UCUGAA | 1.03
* CCUGAA | 1.24
* CCUGAU | 4.47
* UCGUGG | 0.811
* CGUCGU | 0.674
* AACUUC | 0.92
* CAAUGA | 2.18
* UCUGAC | 1.12
* GCUGAC | 1.23
* GUGAUG | 4.7
* ACGAAC | 0.939
* UGAUGG | 5.24
* GAUUCA | 2.7
* GCGAUC | 1.12
* AUGAGC | 1.48
* GCCAGU | 0.901
* AUGAAG | 1.51
* GAAAGG | 1.08
* AGGAUC | 0.788
* ACGAUC | 1
* UCUUCC | 1.01
* GAUUCG | 2.49
* CCAAAA | 1.1
* AAAGCA | 0.885
* ACUGAG | 1.19
* GAUUUU | 3.43
* GCUGAG | 1.18
* CAGAUG | 1.83
* CUGAUG | 5.8
* ACUGAU | 4.17
* CGAAUG | 1.37
* CCGAUU | 2.23
* CCGAUG | 2.4
* ACGAUG | 2.46
* UAUUCU | 0.731
* UUGGUC | 0.953
* GAUAUA | 1.36
* CACGAU | 1.82
* AAUUCA | 0.882
* UGGGUA | 1.02
* AAUUUG | 1.54
* AACAUA | 0.465
* CAUUUA | 0.449
* CGAUGC | 2.1
* UACUAC | 0.53
* ACGAUA | 1.3
* CUGAUA | 3.59
* CAUGUU | 0.757
* UCUGAU | 4.2
* AUUUAU | 0.83
* UCGGAA | 0.907
* GACUCG | 1.13
* GUCAAC | 0.708
* GGGUGU | 0.99
* UACGGA | 0.89
* CAUUCG | 1.05
* CCGGUG | 1.14
* AUAUAA | 0.55
* UGCUGA | 1.98
* AAUCAC | 0.714
* GUAAAA | 0.753
* ACGAAU | 0.896
* CGAUGG | 1.98
* GCCCUU | 1.02
* CGGAGC | 1.01
* CUCUGA | 1.91
* CCUGAC | 1.33
* GAUUCC | 2.37
